Target: Ubiquitin-activating enzyme e1, putative (Leishmania donovani (strain BPK282A1))
Experiment: Leishmania donovani Ubiquitin Activating Enzyme (LdE1)
Format: functional
Parameters: scale not given: direction of the effect not stated beside the values
Conditions: 30 µM
Measured potencies and affinities stand elsewhere.
measurement.kind: Percent Effect (%)
Give your result in % as a bare value.

Exercise: Entry CCn1ncc2c1CCCC2NCC1=Cc2ccccc2OC1 (stereo unspecified) : reported Percent Effect = ?
Key: 3.8

Exercise: Item: c1csc(CN2CCO[C@H]3[C@H](OCCN4CCCC4)CC[C@@H]32)n1
Key: 7.79

Exercise: Another compound to look at: CCS(=O)(=O)N1CCO[C@H]2[C@H](OCCCn3cccn3)CC[C@@H]21
Key: -2.67

Exercise: And the next one, Cc1ccc2cnn(CCC(=O)NCc3c(C)nn(C)c3C)c2c1 ?
Key: 2.6

Exercise: Lookup COC(=O)C1CCN(C(=O)CN2CCN(c3cccc(C)c3)CC2)CC1
Key: 2.74

Exercise: What do you have for Cn1ccc(C(=O)NC2CCC23CCN(Cc2cccnc2)CC3)c1 (stereo unspecified) ?
Key: 2.74

====

Molecular target: Tyrosyl-tRNA synthetase, putative (Trypanosoma cruzi (strain CL Brener))
Assay: Trypanosoma cruzi tyrosyl tRNA synthetase (TcYRS) SOP
Format: functional
Set-up: scale not given: direction of the effect not stated beside the values
Conditions: 30 µM
# binarize Percent Effect: threshold 10% inclusive, high side fulfilled, low side not fulfilled

Exercise: Quick check: does Cc1ccc(C(=O)NC(CN2CCCC2=O)c2ccccc2)c(=O)[nH]1 (stereo unspecified) have Percent Effect greater than or equal to 10%?
Key: fulfilled

Exercise: Here is the next molecule: CC1CCN(C(=O)c2cccc3ncccc23)CC1
Key: not fulfilled

Exercise: Continue with Cc1noc(C)c1C(=O)N1CC[C@H]2C[C@@H](c3ccncn3)O[C@@H]2C1
Key: fulfilled

Exercise: Queued: COc1ncc(C2(O)CCN(Cc3c(F)cccc3F)CC2)c(OC)n1
Key: not fulfilled

Exercise: What would you report for COCCOc1cccc(C(=O)N2CCCC(n3ccnc3C)C2)c1 (stereo unspecified) ?
Key: fulfilled

Exercise: Moving on to c1ncn(CC2CCCN2Cc2cn3ccsc3n2)n1 (stereo unspecified)
Key: not fulfilled

Exercise: Cc1ccccc1CC(=O)N(C)C1CCN(c2ccccn2)CC1 ?
Key: fulfilled

Exercise: Further, for Cc1csc(N2CCCN(C(=O)C(C(C)C)n3cncn3)CC2)n1 (stereo unspecified) ?
Key: fulfilled

Exercise: Now consider CN1CCN(Cc2cn3c(n2)CN(C(=O)N2CCOCC2)CC3)CC1 and answer again.
Key: fulfilled

Exercise: Same read-out for CC(NC(=O)CCCOc1ccccc1)c1nnc2n1CCCCC2 (stereo unspecified) ?
Key: fulfilled

Exercise: Now consider CC(C)C(C)NC(=O)Nc1ccccc1CN1CCOCC1 (stereo unspecified) .
Key: fulfilled

====

Species on record: Homo sapiens
Experiment: To identify inhibition of the IFN signalling (Jak-Stat) pathway via expression of an eGFP reporter gene under the control of an IFN-stimulated response element (ISRE) containing MxA promoter.
Type: functional
Design: scale not given: direction of the effect not stated beside the values
Settings: 30 µM
measurement.kind: Percent Effect (%)
Entry rule: numbers only, all in %.

Exercise: Value lookup for Percent Effect; key = Cc1ccc(C(=O)N2C[C@@H]3OCCN(CCN4CCCC4)[C@@H]3C2)cn1
Key: -5.79

Exercise: Thanks! And Cc1cnccc1CN1CC[C@@](C)(O)[C@H](Oc2ccccc2)C1 ?
Key: -16.3

Exercise: And then CC(C)(C)C(=O)Cn1nc(-c2ccccc2F)ccc1=O , what is it?
Key: 5.03

Exercise: Item: CCNC(=O)N1CCN(C(=O)c2cc(Cl)cc3cccnc23)CC1
Key: 6.48

Exercise: Record: O=C(Cc1cccnc1)N1CCC2(CC1)CCN(C1CCOCC1)C2
Key: 15.5

Exercise: COc1cc(C(C)=O)ccc1OCC(=O)N(C)Cc1cnn(C)c1 , same question.
Key: 6.99

Exercise: Then this compound: CCc1c(C(=O)NCC2CCS(=O)(=O)C2)cnn1-c1ccc(C)cc1 (stereo unspecified)
Key: 5.86

Exercise: Could you do the same for Cn1cnc2c1CCN(Cc1noc(-c3ccccc3)n1)C2 , please?
Key: -13.4

Exercise: Same question, O=C(Cc1ccc2c(c1)OCCO2)NC1CCN(CC(F)F)CC1 this time
Key: -4.72

Exercise: Next up: Cc1cnn(C2CCCN(C(=O)c3ccnc(-n4ccnc4)c3)C2)c1 (stereo unspecified)
Key: 0.141

Exercise: Another compound to look at: O[C@]1(c2ccccn2)CC[C@@H]2CN(Cc3cccc4ncccc34)C[C@@H]21
Key: 21.9

====

Give Percent Effect for every item shown.
Target: Tyrosyl-tRNA synthetase, putative (Trypanosoma cruzi (strain CL Brener)) (UniProt Q4DSP6)
Sequence (Q4DSP6 as listed by the source): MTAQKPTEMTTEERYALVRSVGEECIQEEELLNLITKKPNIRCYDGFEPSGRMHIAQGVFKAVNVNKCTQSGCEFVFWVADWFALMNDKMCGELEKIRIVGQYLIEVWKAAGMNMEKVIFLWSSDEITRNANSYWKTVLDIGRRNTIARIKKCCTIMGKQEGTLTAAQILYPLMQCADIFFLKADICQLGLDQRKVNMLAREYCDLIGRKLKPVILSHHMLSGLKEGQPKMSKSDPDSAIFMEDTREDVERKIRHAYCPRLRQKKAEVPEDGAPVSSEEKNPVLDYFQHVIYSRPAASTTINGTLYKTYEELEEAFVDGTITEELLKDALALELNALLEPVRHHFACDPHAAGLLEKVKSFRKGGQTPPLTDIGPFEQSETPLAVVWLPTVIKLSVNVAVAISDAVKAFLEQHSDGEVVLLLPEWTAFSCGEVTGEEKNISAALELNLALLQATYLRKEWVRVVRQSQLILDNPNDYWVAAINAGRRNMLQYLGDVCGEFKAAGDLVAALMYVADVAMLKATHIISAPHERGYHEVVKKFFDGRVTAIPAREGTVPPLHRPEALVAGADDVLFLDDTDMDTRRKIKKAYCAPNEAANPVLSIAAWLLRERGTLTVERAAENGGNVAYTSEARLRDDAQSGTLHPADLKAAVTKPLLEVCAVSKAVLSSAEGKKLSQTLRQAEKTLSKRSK
Experiment: Trypanosoma cruzi tyrosyl tRNA synthetase (TcYRS) _High Tyrosine SOP; further: in the data most compounds retested in dose-response had high values
Format: functional
Set-up: scale not given: direction of the effect not stated beside the values
Conditions: 30 µM
Field: numeric (%). Do not append units.

Exercise: Reported Percent Effect, molecule O=C(NCC1CC1)N1CCN(Cc2ccc3c(c2)OCCO3)CC1 : ____
Key: 3.45

Exercise: Now the same for Cn1ncc(NCc2cccc(COC(C)(C)C)c2)c(Cl)c1=O
Key: 2.63

Exercise: Same lookup for Cc1ccc2c(n1)N(Cc1cccnc1)CCN(C(=O)C1CCC1)C2 , please.
Key: 4.74

Exercise: How about this molecule: CN(Cc1cccs1)C(=O)CN1CCCC1Cn1cncn1 (stereo unspecified)
Key: 7.53

Exercise: One more molecule: Cc1nnc(N2CCCC3(CN(Cc4ccc(C)s4)CCO3)C2)o1 (stereo unspecified)
Key: 2.08

Exercise: Can you check Cc1ccc(S(=O)(=O)NC(=O)c2cccc(OCC(N)=O)c2)s1 next?
Key: 6.4

Exercise: Same for Cn1c(C2CC2)nc2c1CCN(CCS(=O)(=O)c1ccccc1)C2
Key: 0.526

Exercise: Same question for CC(C)c1n[nH]c(C2CN(C(=O)c3csnn3)CCO2)n1 (stereo unspecified) please.
Key: 3.45

Exercise: Could you do the same for Cc1ccc(CC(=O)N2Cc3nccn3CC(CN(C)C)C2)cc1 (stereo unspecified) , please?
Key: 8.33

Exercise: Cool, now COc1ccc(CN2C[C@H](OCC3CCOCC3)[C@H]3COC[C@H]32)cc1
Key: 11.5

Exercise: What do you get for CCOc1ncccc1NC(=O)c1cc(C)c(C)s1 ?
Key: -3.16

====

Would you kindly list Percent Effect for each of these compounds?
Biological target: AMP-activated protein kinase, AMPK (Homo sapiens) (UniProt P54646+O43741+P54619+Q9UGJ0+Q9Y478+Q13131+Q9UGI9)
Test: AMP-dependent Kinase enzyme assay. An in vitro enzyme assay that detects ADP turnover that is directly proportional to AMPK activity. This uses naive AMPK that is activated during the assay with MK-8722
Assay type: functional
Design: scale not given: direction of the effect not stated beside the values
Conditions: 30 µM
Express the result in % but write the number alone.

Exercise: Which Percent Effect is listed for CC(C)C(C)NC(=O)Nc1ccccc1CN1CCOCC1 (stereo not drawn) ?
Key: 0.895

Exercise: Quick one: O=C(CSc1ncccn1)N1C[C@H]2CC[C@@H]1CN(Cc1ccncc1)C2
Key: -5.51

Exercise: One more compound: CCC(=O)NCCc1cc(N2CCN(C(C)=O)CC2)nc(C2CC2)n1
Key: 12.6

Exercise: Param item: NC(=O)NCC(=O)N1C[C@H]2CC[C@@H]1CN(Cc1ccccc1)C2
Key: 6.44

Exercise: CCn1nc(C)c2nnn(CC(=O)Nc3c(C)cccc3C)c(=O)c21 , same question.
Key: -10.2

Exercise: Same question for Cc1ccc([C@@H]2CN(S(=O)(=O)N(C)C)C[C@H]2N(C)C)cc1 please.
Key: -7.05

Exercise: Then what about the compound c1ccc(CN2CCc3ncnc(-c4ccsc4)c3CC2)nc1 ?
Key: 2.79

Exercise: Same read-out for CCNc1cc2c(nn1)CCN(C(=O)Cc1c(C)noc1C)C2 ?
Key: 9.72

Exercise: Query CCn1cc(CN2C[C@@H]3CCCN3C[C@@H]2CCSC)c(C)n1 next
Key: 8.44

Exercise: Do the same for Cc1occc1C(=O)N1CCC2(CCC2NC(=O)c2ccn(C)c2)CC1 (stereo not drawn) please
Key: 3.15

Exercise: Check C[S+]([O-])c1nncn1CC(=O)c1ccc(Cl)c(Cl)c1 (stereo not drawn) too.
Key: -4.71

Exercise: Can you check Cc1nn(C)c(C)c1C1COCCN1C(=O)Cc1cccc(F)c1 (stereo not drawn) next?
Key: -6.33

Exercise: For Cc1nc(N2CCN(C(=O)C3CC3)CC2)c2c(n1)c(C)nn2C then?
Key: 0.162

Exercise: Can you check CC1=N[C@@]2(CC[C@@H]3CN(CC(=O)N(C)C)C[C@@H]32)C(=O)N1CC(C)C next?
Key: 42.2

Exercise: Next record, please: Cn1cc(CN2CC[C@@H]3[C@@H](CCC(=O)N3CCC3=CCCCC3)C2)cn1
Key: 4.85

Exercise: Same thing, different compound: CCS(=O)(=O)N1C[C@H]2CCC[C@@]2(COc2ccccn2)C1
Key: -6.57

Exercise: Now consider COc1ccc(Cc2cccc(C3CCN(C)CC3)n2)cc1 and answer again.
Key: 8.96

Exercise: Query CN(C)c1ncc(-c2cc(C(=O)O)n(CC3CC3)c2)cn1 next
Key: 5.47

Exercise: Would you kindly repeat that for COC[C@@]12CCO[C@@H]1CCN(C(=O)Cc1ccccc1F)C2 ?
Key: -6.38

Exercise: # repeat for COc1c(C2CCCN2CC(=O)Nc2cc(C)no2)c(C)nn1C (stereo not drawn)
Key: -3.77

Exercise: // same read-out, input: Cc1ncnc2c1CCN(Cc1ccccn1)CC2
Key: -0.577

Exercise: Quick one: Cc1cc(C2CCCN(C(=O)c3cnccn3)C2)ccn1 (stereo not drawn)
Key: 5.06

Exercise: Check Cc1noc(C2CCCN(C(=O)c3ccc(Br)cc3F)C2)n1 (stereo not drawn) too.
Key: 2.06
